# System: 786-0 renal
# measurementNotes: NCI tumour cell line growth inhibition, 48 h
molecules and their reported TGI

Please review the following examples before continuing.
• CCC(C)OC(=O)/C(Br)=C1/OC(=O)c2ccccc2-c2ccccc21 (stereo not given) = > 100 µM
• Cc1ncc(C(=O)Nc2ccc(CN3CCN(C)CC3)c(C(F)(F)F)c2)cc1C#Cc1cnc(N)c2ccncc12 = 3.3 µM
• S=C(S)NCNC(=S)S.[Zn+2] = > 100 µM
• O=C(/C=C/c1cccc2ccccc12)c1ccccc1Cl = 27.2 µM

stdin: If you can, please state the reported TGI value of COc1ccc(/C=C2/N=C(c3ccccc3)N(c3c(C)n(C)n(-c4ccccc4)c3=O)C2=O)cc1OC .
stdout: > 100 µM

stdin: // lookup TGI for NC(=O)C(C(N)=O)=C(O)C(=O)/C=C(\O)c1ccccc1
stdout: > 100 µM

stdin: Please report the recorded TGI for CCC[CH2][Sn]([Cl])([CH2]CCC)[CH2]CCC .
stdout: 0.21 µM

stdin: Field request: TGI | item: O=C(CSc1nc2ccccc2nc1-c1ccccc1)Nc1ccc(F)cc1
stdout: > 100 µM

stdin: Give the measured TGI of Cn1ccc(C(=O)NCCN(CCNC(=O)c2ccn(C)c(=O)c2O)CCNC(=O)c2cccc(=O)n2O)c(O)c1=O .
stdout: > 100 µM

stdin: Given the molecule CC1CCC(=O)C(C(=O)CC2CC(=O)N(C)C(=O)C2)C1 (stereo not given) , what is its reported TGI?
stdout: > 100 µM

###

# Tested on: HOP-18 NSCLC
# measurementNotes: NCI tumour cell line growth inhibition, 48 h
valueKind: TGI (µM)
Numbers only; they are read as µM.

stdin: Query TGI on HOP-18 NSCLC for CC1(C)N=C(N)N=C(N)N1c1ccc(CCc2ccccc2)cc1
stdout: 97.3

stdin: Lab note: need TGI with HOP-18 NSCLC for entry NCc1ccccc1-c1c2nc(c(-c3ccccc3CN)c3ccc([nH]3)c(-c3ccccc3CN)c3nc(c(-c4ccccc4CN)c4ccc1[nH]4)C=C3)C=C2 , please look it up.
stdout: 8.81

###

# Tested on: OVCAR-4 ovarian
# measurementNotes: NCI tumour cell line growth inhibition, 48 h
valueKind: TGI

stdin: Reported TGI, molecule N#C/C1=C(\N)CCSSSC1 : ____
stdout: > 100 µM

stdin: Please report the recorded TGI for CCOC(=O)C(Cc1ccc(CCCC(=O)NCCC(=O)Nc2ccc3nc(C)sc3c2)cc1)C(=O)OCC .
stdout: > 100 µM

###

Recorded TGI, one value per entry.
# Test system: SF-539 CNS
# measurementNotes: NCI tumour cell line growth inhibition, 48 h
Quick reminder: number only, in µM, skip the unit.

- O=[N+]([O-])/C(C(Cl)=C(Cl)Cl)=C(/Cl)Sc1ccccc1: 3.78
- O=C(Nc1nc(C23CC4CC(CC(C4)C2)C3)cs1)c1cc2ccc(O)cc2oc1=O: 86.6

// switching to the query molecule
stdin: Report TGI for CC(=O)Oc1c2c(c(O)c3ccccc13)C(n1cnc3c(ncn3C3OC(CO)C4OC(C)(C)OC43)c1=N)CCC2 (stereo not given) please.
stdout: 32.2

###

Reported TGI values for a set of molecules
# Test system: XF 498 CNS
# measurementNotes: NCI tumour cell line growth inhibition, 48 h

- N#C/C1=C(\N)CCSSSC1: > 100 µM
- Cc1ccc(NC(=O)CCc2cc(C(C)(C)C)nc(=S)[nH]2)cc1C: > 100 µM
- CN(C)CC1CCCC/C1=N/OC(=O)c1ccc(Cl)cc1 (stereo not drawn): > 100 µM

stdin: For Cc1[nH]c2ccccc2c1C(=O)/C=C/c1ccccc1O , what is its reported TGI?
stdout: > 100 µM

stdin: For the molecule CCCc1nc(NC#N)nc(C(=O)Nc2ccccc2)c1CC , what TGI is on record?
stdout: > 100 µM

###

# Tested on: OVCAR-3 ovarian
# measurementNotes: NCI tumour cell line growth inhibition, 48 h
Reported TGI values for a set of molecules

Consider the reported TGI for these molecules:
• O=C1Nc2ccccc2/C1=N\[O-].O=C1Nc2ccccc2/C1=N\[O-].[Cu+2] = > 100 µM
• C1CN2CCN3CCN4CCN1[P+]243 = > 100 µM

stdin: Which TGI reading was recorded for the molecule Cn1cc(-c2csc(-c3c[nH]c4ccc(F)cc34)n2)c2cnccc21 ?
stdout: 3.32 µM

stdin: Look at this molecule and give its reported TGI. O=C1/C(=C/c2ccccc2S)N=C(c2ccccc2)N1c1nc2c(Cl)cc(Cl)cc2s1
stdout: 40.2 µM

stdin: Item O=C(Nc1nc(=S)c2c(ncn2CCOC(=O)c2ccccc2)[nH]1)c1ccccc1 has what recorded TGI?
stdout: > 100 µM

stdin: Endpoint output: TGI of Cn1ccc(C(=O)NCCN(CCNC(=O)c2ccn(C)c(=O)c2O)CCNC(=O)c2cccc(=O)n2O)c(O)c1=O . Value?
stdout: > 100 µM

stdin: Consider the molecule C=C(C)[C@@H]1CC[C@]2(C)[C@H](CC=C3[C@@H]4CC(C)(C)CC[C@]4(C(N)=O)CC[C@]32C)[C@@]1(C)CCC#N and give its measured TGI.
stdout: > 100 µM

stdin: Requested read-out: TGI. Entry: CC(=O)Oc1c2c(c(O)c3ccccc13)C(n1cnc3c(ncn3C3OC(CO)C4OC(C)(C)OC43)c1=N)CCC2 (centres undefined)
stdout: 27.8 µM

stdin: What value of TGI has been reported for the following molecule? NNC(=O)c1n[nH]nc1C(=O)NN
stdout: > 100 µM

###

# System: ACHN renal
# measurementNotes: NCI tumour cell line growth inhibition, 48 h
Catalogue of GI50 values

• O=C1/C(=C/c2cccc(Cl)c2Cl)N=C(c2ccccc2)N1C1CC1 = 16700 nM
• COc1cc2c3c(n(C)c(=O)c2cc1OC)-c1cc2c(cc1/C3=C\CN)OCO2 = 37 nM
• O=C(N[C@@H](c1ccc(Cl)c(Cl)c1)C1CNC1)c1ccc2cnccc2c1 = 904 nM
• COc1cc2c(cc1OCCCNC(=O)c1cccc3c(=O)c4ccccc4[nH]c13)N=C[C@@H]1CCCN1C2=O = 19.7 nM
• COc1ccc(-c2nc3ccc(-c4nc5ccc(N6CCN(c7ccccc7)CC6)cc5[nH]4)cc3[nH]2)cc1OC = 2280 nM

stdin: Which value of GI50 has been reported for CCOC(=O)Nc1ccc(-c2nc(-c3cccc(OCCN4CCOCC4)c3)c(-c3ccnc(Br)c3)[nH]2)cc1 in the records?
stdout: 3060 nM

stdin: Would you kindly share the measured GI50 for COc1c(OC[C@H](O)CN2CCOCC2)ccc2c3n(c(=NC(=O)c4cccnc4C)nc12)CCN3 ?
stdout: 411 nM

stdin: Quick one: GI50 of CCOC(=O)C(Cc1ccc(CCCC(=O)NCCC(=O)Nc2ccc3nc(C)sc3c2)cc1)C(=O)OCC ?
stdout: 18200 nM

###

# Test system: OVCAR-8 ovarian
# measurementNotes: NCI tumour cell line growth inhibition, 48 h
Documented TGI across a set of compounds
Please respond with the number in µM and leave the unit unwritten.

Solved cases (2 shown):
• CCCCCCOC(=O)/C=C/[C@]1(CO)C/C(=C/CC(C(C)C)C(C)C)C(=O)O1 = 31.6
• O=C1/C(=C/c2ccccc2S)N=C(c2ccccc2)N1c1nc2c(Cl)cc(Cl)cc2s1 = 73.3

We now examine a further compound.
stdin: For CC1OC(OC2C(O)COC(OC3C(C)OC(OC4C(OC(=O)[C@]56CCC(C)(C)C[C@@H]5C5=CCC7[C@@]8(C)C[C@H](O)[C@H](OC9OC(CO)C(O)C(O)C9O)[C@@](C)(CO)[C@@H]8CC[C@@]7(C)[C@]5(C)CC6)OCC(O)C4O)C(O)C3OC3OCC(O)(CO)C3O)C2O)C(O)C(O)C1O (some centres undefined) , what is its reported TGI?
stdout: 40.4

###

Measured TGI values are reported for all entries that follow.
# System: T-47D breast
# measurementNotes: NCI tumour cell line growth inhibition, 48 h

Examples with their reported TGI follow.
- O=c1[nH]nc(Cc2ccccc2)n1/N=C/c1ccccc1O: > 100 µM
- COC(=O)C(Cc1c[nH]c2ccccc12)NP(=O)(O)OCC1OC(n2cc(I)c(=O)[nH]c2=O)CC1O (stereo unspecified): > 100 µM

Pending compound:
stdin: Quick one: TGI for COc1ccc2cc(/C=N/NC(=O)Nc3ccccc3)ccc2c1 ?
stdout: > 100 µM

###

# Tested on: LXFL 529 NSCLC
# measurementNotes: NCI tumour cell line growth inhibition, 48 h
Entries annotated with measured TGI

Previously resolved entries follow.
• COc1cc(NS(C)(=O)=O)ccc1Nc1c2ccccc2nc2c1[nH]c1ccc(NC3OC(CO)C(O)C(O)C3O)cc12 (stereo unspecified) = 2.46 µM
• O=C1/C(=C/c2ccc3c(c2)OCO3)SC2C=Nc3ccccc3N12 (stereo unspecified) = > 100 µM
• COc1ccc(NC(=O)/C(Cc2cc(=O)oc3cc(O)ccc23)=N\NC(C)(C)C)c(OC)c1 = > 100 µM
• CCOc1ccc(NC(=O)C(=O)CC(=O)c2c(C)n([O-])c3ccccc3[n+]2=O)cc1 = > 100 µM

stdin: State the recorded TGI for this entry: O=C1/C(=C/c2ccc(Cl)cc2)CCC1CCN1CCOCC1 (stereo unspecified)
stdout: > 100 µM

stdin: Recorded TGI of CN(C)CC1CCCC/C1=N/OC(=O)c1ccc(Cl)cc1 (stereo unspecified) , please.
stdout: > 100 µM
